Data credit: ChEMBL document CHEMBL1158475

Tested on: Plasmodium falciparum
Assay Info: Inhibition of Plasmodium falciparum recombinant falcipain-2 at 10 uM by microtiter plate spectrofluorimetry
Test Readout: inhibition (%)

Would you please look over these solved cases?
>>> recorded_value("O=C(CCc1ccc(S(=O)(=O)NCCc2ccccc2)cc1)Nc1ccc2c(c1)OCCO2")
20.3
>>> recorded_value("CCc1ccc(OCc2nnc(SCC(=O)Nc3ccc4ccccc4c3)o2)cc1")
21.9

I: Cc1cc(C)nc(NS(=O)(=O)c2ccc(NC(=S)NC(=O)c3cccnc3)cc2)n1
II: CC(Sc1nc(-c2ccccc2O)n[nH]1)C(=O)Nc1cccc(Cl)c1 (centres undefined)
Could you please tell me which of these two has the higher inhibition: I or II ? Answer by quoting the chosen item's label.
II

---

Tested on: Plasmodium falciparum
Assay Info: Inhibition of Plasmodium falciparum recombinant falcipain-2 at 10 uM by microtiter plate spectrofluorimetry
Test Readout: inhibition (%)

>>> recorded_value("CC(=O)c1ccc(NC(=O)CSc2nnc(COc3ccc4ccccc4c3)n2-c2ccccc2)cc1")
23.4
>>> recorded_value("O=C(Cc1nnc(NC(=O)c2ccc(Br)cc2)s1)NNC(=O)c1ccc(Br)cc1")
20.2
>>> recorded_value("O=C(COc1cccc(Cl)c1)Nc1nc(-c2ccc(S(=O)(=O)N3CCOCC3)cc2)cs1")
25.2

I: CC(C)C[C@H](NC(=O)[C@H]1O[C@@H]1C(=O)O)C(=O)NCCCCN=C(N)N
II: O=C(COC(=O)c1ccc(S(=O)(=O)c2cccc(S(=O)(=O)N3CCOCC3)c2)cc1)c1ccccc1
III: Cc1c(Cl)cccc1-c1ccc(/C=N\Nc2nncn2/N=C/c2ccc(-c3cccc(Cl)c3C)o2)o1
IV: COc1ccc(C(=O)NNC(=O)CSc2nnc(COc3ccc4ccccc4c3)n2C)cc1
Reorder the items by inhibition, least to greatest. Order the labels as requested and list them.
IV, II, III, I

---

Test system: Plasmodium falciparum
Assay Info: Inhibition of Plasmodium falciparum recombinant falcipain-2 at 10 uM by microtiter plate spectrofluorimetry
Test Readout: inhibition (%)

Would you please look over these solved cases?
>>> recorded_value("CC(NC(=O)COc1ccc2ccccc2c1)C(=O)N/N=C/c1cccc(Cl)c1Cl (stereo not drawn)")
25.1
>>> recorded_value("CCOC(=O)c1c(-c2ccc(-c3ccccc3)cc2)csc1NC(=O)CSc1nnc2sc3ccccc3n12")
36.6
>>> recorded_value("O=C(Cn1nnc(-c2ccccc2)n1)N/N=C/c1ccccc1OCc1ccc(Cl)cc1Cl")
28.9
>>> recorded_value("O=C(COc1ccc2ccccc2c1)NCC(=O)N/N=C/c1ccc(-c2ccc(Cl)c(Cl)c2)o1")
48.5
>>> recorded_value("O=C(CN1C(=O)S/C(=C/c2ccc(-c3ccc(Cl)c(C(=O)O)c3)o2)C1=O)Nc1ccc2c(c1)OCO2")
41.4
>>> recorded_value("COc1cccc(OCC(=O)NC(=S)Nc2cccc(-c3nc4ncccc4o3)c2C)c1")
20.2

I: O=C(CSc1nnc(SCC(=O)Nc2ccc(Cl)cc2)s1)Nc1ccc(Cl)cc1
II: C=CCn1c(SCC(=O)Nc2sc3c(c2C(N)=O)CCC3)nc2scc(-c3ccccc3)c2c1=O
Could you please tell me which of these two has the higher inhibition: I or II ? Answer by quoting the chosen item's label.
II

1: Cc1ccc(NC(=O)CN2C(=O)S/C(=C/c3ccc(-c4ccc(Cl)c(C(=O)O)c4)o3)C2=O)cc1
2: Nc1nnc(SCC(=O)Nc2ccc3nc(SCc4cccc5ccccc45)sc3c2)s1
I'm curious, which of these has a smaller inhibition number: 1 or 2 ? Answer by quoting the chosen item's label.
1
(1: 29%, 2: 44%)

a: CCn1c(CNC(=O)Cc2ccc(OC)cc2)nnc1SCC(=O)Nc1ccc(Cl)c(Cl)c1
b: CCOC(=O)c1ccc(NC(=O)CSc2nnc(-c3ccccc3Br)n2CC)cc1
Could you please tell me which of these two has the higher inhibition: a or b ? Answer by quoting the chosen item's label.
b
(b: 38.3%, a: 25.9%)
